Cited source: paper PMC4491694

# assayed.system: ToTK1ΔC25 (Solanum lycopersicum, UniProt Q71F77)
# Construct: last 25 C-terminal residues of the 234-residue protein deleted (residues 210-234, borders derived); GST fusion from pGEX-2T, thrombin-cleaved, recombinant
# Sequence (Q71F77 1-209, stated change not applied): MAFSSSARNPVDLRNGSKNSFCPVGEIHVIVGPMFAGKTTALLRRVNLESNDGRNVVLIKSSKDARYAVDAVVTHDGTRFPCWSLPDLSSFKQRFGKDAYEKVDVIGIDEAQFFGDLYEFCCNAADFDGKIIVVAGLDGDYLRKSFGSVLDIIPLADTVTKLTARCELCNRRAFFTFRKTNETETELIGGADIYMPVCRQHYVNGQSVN
# assay.method.text: nucleoside kinase assay, 3H-labelled nucleoside substrate
# Format: biochemical
# conditions.used: read-out: IC50 dTTP (μM) / dThd
# Source text: nucleoside kinase assay, 3H-labelled nucleoside substrate on ToTK1ΔC25
quantity.name: IC50 (µM)
Numbers only; they are read as µM.

Problem: Which IC50 reading was recorded for the molecule `Cc1cn([C@H]2C[C@H](O)[C@@H](COP(=O)(O)OP(=O)(O)OP(=O)(O)O)O2)c(=O)[nH]c1=O` ?
Solution: 65.2
